# TESTED_ON: T1, D2 domain of human IL2Rγ extracellular domain expressed with a C-terminal myc-myc-hexahistidine tag (human)
# T1 construct: also called human IL2Rγ domain 2
# T1 chain: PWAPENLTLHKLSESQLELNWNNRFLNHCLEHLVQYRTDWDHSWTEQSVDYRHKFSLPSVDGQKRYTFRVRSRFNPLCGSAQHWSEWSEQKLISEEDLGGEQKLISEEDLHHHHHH
# ASSAY_DETAILS: SPR, mAb captured on anti-hFc, 25 C
# Description: Equilibrium dissociation constants (KD values) for IL-2Rγ binding to purified anti-IL2Rγ monoclonal antibodies were determined using a Biacore 4000 instrument equipped with a real-time surface plasmon resonance biosensor. All binding studies were performed in 10 mM HEPES, 150 mM NaCl, 3 mM EDTA, and 0.05% v/v Surfactant Tween-20, pH 7.4 (HBS-ET) running buffer at 25° C. and 37° C. […]
# 100 nM Ag Bound listing for each entry below
Dear colleague, please return just the value in RU, with no unit written.

Previously resolved entries follow.
BINDER	UNIT_TEXT	100 nM Ag Bound
H4H12900P (antibody, human IgG4 S228P, kappa, V domains shown, human IgG4) VH: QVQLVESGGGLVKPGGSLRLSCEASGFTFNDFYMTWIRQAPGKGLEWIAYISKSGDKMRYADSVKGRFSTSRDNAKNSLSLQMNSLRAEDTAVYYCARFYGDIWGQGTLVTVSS VL: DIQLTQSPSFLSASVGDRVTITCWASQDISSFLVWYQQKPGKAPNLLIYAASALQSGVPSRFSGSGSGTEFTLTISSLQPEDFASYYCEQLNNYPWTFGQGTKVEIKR	RU	-1
H4H12858P (antibody, human IgG4 S228P, kappa, V domains shown, human IgG4; also called REGN9433) VH: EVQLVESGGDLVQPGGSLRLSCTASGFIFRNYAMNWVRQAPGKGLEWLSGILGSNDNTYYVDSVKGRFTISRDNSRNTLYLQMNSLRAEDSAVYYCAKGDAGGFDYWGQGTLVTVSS VL: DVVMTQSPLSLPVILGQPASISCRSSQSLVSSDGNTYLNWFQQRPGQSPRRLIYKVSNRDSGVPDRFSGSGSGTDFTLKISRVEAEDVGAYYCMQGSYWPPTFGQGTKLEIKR	RU	0
H4H12899P (antibody, human IgG4 S228P, kappa, V domains shown, human IgG4) VH: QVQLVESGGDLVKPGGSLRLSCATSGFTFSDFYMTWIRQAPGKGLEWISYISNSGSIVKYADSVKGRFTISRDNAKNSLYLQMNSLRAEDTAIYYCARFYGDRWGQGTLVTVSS VL: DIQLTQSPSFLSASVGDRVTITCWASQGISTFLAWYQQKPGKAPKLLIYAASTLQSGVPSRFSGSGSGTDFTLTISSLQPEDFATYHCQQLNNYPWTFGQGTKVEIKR	RU	-1
H4H13538P (antibody, human IgG4 S228P, kappa, V domains shown, human IgG4) VH: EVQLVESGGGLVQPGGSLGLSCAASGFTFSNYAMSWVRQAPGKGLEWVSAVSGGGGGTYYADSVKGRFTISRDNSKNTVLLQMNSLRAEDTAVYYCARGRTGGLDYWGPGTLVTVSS VL: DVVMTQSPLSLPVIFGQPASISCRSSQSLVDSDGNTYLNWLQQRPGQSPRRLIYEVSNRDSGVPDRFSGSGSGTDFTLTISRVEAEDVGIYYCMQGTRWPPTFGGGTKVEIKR	RU	6
H4H12871P (antibody, human IgG4 S228P, kappa, V domains shown, human IgG4; also called REGN9434) VH: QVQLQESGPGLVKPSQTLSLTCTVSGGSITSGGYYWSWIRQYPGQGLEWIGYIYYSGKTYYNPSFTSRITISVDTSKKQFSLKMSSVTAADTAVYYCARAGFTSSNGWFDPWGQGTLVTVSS VL: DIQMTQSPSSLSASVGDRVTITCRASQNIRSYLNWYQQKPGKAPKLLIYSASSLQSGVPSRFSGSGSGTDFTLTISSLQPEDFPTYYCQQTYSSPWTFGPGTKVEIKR	RU	0

Next item in the queue.
100 nM Ag Bound reading for H4H12884P (antibody, human IgG4 S228P, kappa, V domains shown, human IgG4) VH: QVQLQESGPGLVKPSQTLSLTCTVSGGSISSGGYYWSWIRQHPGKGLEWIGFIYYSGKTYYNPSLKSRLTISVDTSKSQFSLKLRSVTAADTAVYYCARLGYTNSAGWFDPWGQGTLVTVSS VL: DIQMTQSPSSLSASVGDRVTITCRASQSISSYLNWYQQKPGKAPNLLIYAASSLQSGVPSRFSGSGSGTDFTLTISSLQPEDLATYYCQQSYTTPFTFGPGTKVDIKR : 1
